Please provide measured pIC50 for the entries that follow.
# systemUnderTest: Cyclin-dependent kinase 2 (Homo sapiens, UniProt P24941)
In textbook form, pIC50 equals minus log to base ten of the concentration in mol/L.

Prompt: Lab note: need pIC50 with Cyclin-dependent kinase 2 (Homo sapiens, UniProt P24941) for entry CC(C)C(CO)Nc1nc(NCc2cccc(O)c2)c2ncn(C(C)C)c2n1 (configuration not stated) , please look it up.
Completion: 7.52

Prompt: Then CC(C)n1cnc2c(NCc3ccccc3)nc(NC[C@@H](C)O)nc21 ?
Completion: 6.70

Prompt: Then CC(C)n1cnc2c(N)nc(NCCCO)nc21 ?
Completion: 5.62

Prompt: Then CC(C)n1cnc2c(NCc3ccccc3)ncnc21 ?
Completion: 5.35

Prompt: Then CC(C)n1cnc2c(NC3CCCC3)nc(NCCCO)nc21 ?
Completion: 6.05

Prompt: Then CC(C)n1cnc2c(NCc3ccccc3)nc(NCCCO)nc21 ?
Completion: 6.10
